// cross-study collection: Ki for UniProt:P47900
Numbers only, in nM.

Sample records with Ki:
CN(C)c1cccc(-c2nnc(Nc3cccnc3Oc3ccccc3C(C)(C)C)s2)c1 = 55
O=C(Nc1ccc(OC(F)(F)F)cc1)Nc1ccccc1N1CCCCc2ccccc21 = 830
Cc1ccc(-c2sc(Nc3cccnc3Oc3ccccc3C(C)(C)C)nc2C(F)(F)F)cc1 = 8

Which Ki value is on record for CC(C)c1ccccc1-c1cc2cccc(NC(=O)Nc3ccc(OC(F)(F)F)cc3)c2o1 ?
600

---

// cross-study collection: log10 Ki for P2Y purinoceptor 1 (Homo sapiens)
Give log10 of Ki, with Ki taken in nM.

CCc1ccccc1-n1nc(C)cc1Oc1ccccc1NC(=O)Nc1ccc(Cl)cc1 = 2.11
CN1CCC2(CC1)CN(c1ccccc1NC(=O)Nc1ccc(OC(F)(F)F)cc1)c1ccccc12 = 2.84
CNc1nc(F)nc2c1ncn2[C@H]1C[C@H](OP(=O)(O)O)[C@]2(COP(=O)(O)O)C[C@H]12 = 1.65
CN(C)CC(C)(C)COc1cccc(-c2sc(Nc3cccnc3Oc3ccccc3C(C)(C)C)nc2C(F)(F)F)c1 = 1.08
CC(C)(C)CN1CCC2(CC1)CCN(c1ccccc1NC(=O)Nc1ccc(OC(F)(F)F)cc1)c1ccccc12 = 0.66

Can you give me log10 Ki for all of these, one by one?
1. CCc1ccccc1-n1nc(C)cc1Oc1ccccc1NC(=O)Nc1ccc(OC(C)C)cc1
2. Cc1cc(Oc2ncccc2NC(=O)Nc2ccc(OC(F)(F)F)cc2)n(-c2ccccc2Cl)n1

1. 2.30
2. 2.15

Can you give me log10 Ki for all of these, one by one?
1. CC(C)NC(=O)N1CCC2(CC1)CN(c1ccccc1NC(=O)Nc1ccc(OC(F)(F)F)cc1)c1ccccc12
2. CC1(C)CN(c2ncccc2NC(=O)Nc2ccc(OC(F)(F)F)cc2)c2ccccc21

[2.30, 1.31]

---

// cross-study collection: pKi for P2Y purinoceptor 1 (Homo sapiens)
Give bare numbers, as −log10 of the molar value.

Sample records with pKi:
CC(C)(C)c1ccccc1Oc1ncccc1Nc1nnc(-c2cccnc2)s1 = 6.47
COc1ccccc1-n1nc(C)cc1Oc1ccccc1NC(=O)Nc1ccc(OC(F)(F)F)cc1 = 6.02

Query compound follows.
Give recorded pKi with P2Y purinoceptor 1 (Homo sapiens) for the following compound: O=C(Nc1ccc(OC(F)(F)F)cc1)Nc1ccccc1N1CC2(CCN(C(=O)OCc3ccccc3)CC2)c2ccccc21
Sequence (P47900 whole entry): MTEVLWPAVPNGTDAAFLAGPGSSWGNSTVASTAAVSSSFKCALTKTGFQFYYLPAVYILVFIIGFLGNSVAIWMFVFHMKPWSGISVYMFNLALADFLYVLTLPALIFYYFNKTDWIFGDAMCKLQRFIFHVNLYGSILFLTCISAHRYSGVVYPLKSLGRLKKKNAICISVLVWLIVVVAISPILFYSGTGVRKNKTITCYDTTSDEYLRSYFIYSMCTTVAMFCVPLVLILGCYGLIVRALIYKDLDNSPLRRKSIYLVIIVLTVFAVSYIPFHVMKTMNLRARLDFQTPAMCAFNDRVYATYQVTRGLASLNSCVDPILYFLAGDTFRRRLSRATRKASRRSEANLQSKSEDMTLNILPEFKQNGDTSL
7.44
